Entries annotated with measured pEC50
study.target: UniProt:O95977
Sequence (O95977 whole entry): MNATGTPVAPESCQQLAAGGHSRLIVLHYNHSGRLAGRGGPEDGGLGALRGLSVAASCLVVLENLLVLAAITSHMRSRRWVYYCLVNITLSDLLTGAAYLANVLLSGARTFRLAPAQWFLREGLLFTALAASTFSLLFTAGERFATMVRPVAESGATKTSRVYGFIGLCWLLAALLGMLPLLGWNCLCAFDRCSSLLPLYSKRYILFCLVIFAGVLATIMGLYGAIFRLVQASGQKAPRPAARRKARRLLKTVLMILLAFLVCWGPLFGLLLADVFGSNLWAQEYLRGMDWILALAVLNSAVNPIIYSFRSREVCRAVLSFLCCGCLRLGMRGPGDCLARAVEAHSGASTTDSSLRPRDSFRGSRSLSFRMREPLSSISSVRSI
protocol.details: GTPγS binding assay using S1P receptor/CHO membranes preparation
test.settings: [35S]GTPγS, CHO membranes, SPA
To interpret pEC50, take it as minus log10 of a concentration measured in moles per litre.

Examples with answers:
# compound, study.target, pEC50
rows = [
    ("CCCCCCCCc1ccc(CC[C@](N)(CO)COP(=O)(O)O)c(I)c1 [Example K]", "UniProt:O95977", 8.15),
    ("NC(CO)(CCc1ccc(OCCCC/C=C/I)cc1)COP(=O)(O)O (racemic) [Example B]", "UniProt:O95977", 9.08),
    ("NC(CO)(CCc1ccc(OCCCC/C=C\\I)cc1)COP(=O)(O)O (racemic) [Example D]", "UniProt:O95977", 8.72),
]

Request: Which pEC50 is listed for C=C(I)CCCCOc1ccc(CCC(N)(CO)COP(=O)(O)O)cc1 (racemic) [Example F] ?
Result: 8.54

Request: Proceed to CCCCCCCCc1ccc(CC[C@](N)(CO)COP(=O)(O)O)cc1I [Example J]
Result: 8.31

###

Recorded pEC50 values for a group of compounds are listed next.
study.target: S1P5 (Homo sapiens, UniProt Q9H228)
Sequence (Q9H228 whole entry): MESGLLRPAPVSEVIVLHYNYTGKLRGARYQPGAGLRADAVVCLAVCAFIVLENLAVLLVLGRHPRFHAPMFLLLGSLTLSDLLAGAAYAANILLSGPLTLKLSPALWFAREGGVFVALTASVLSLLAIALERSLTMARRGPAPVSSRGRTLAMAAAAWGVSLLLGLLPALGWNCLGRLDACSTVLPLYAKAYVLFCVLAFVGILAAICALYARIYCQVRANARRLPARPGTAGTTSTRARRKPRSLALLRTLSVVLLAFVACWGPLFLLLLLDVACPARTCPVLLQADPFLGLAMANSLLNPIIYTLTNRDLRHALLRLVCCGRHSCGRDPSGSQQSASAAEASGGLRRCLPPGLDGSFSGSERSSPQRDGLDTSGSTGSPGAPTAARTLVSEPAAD
protocol.details: GTPγS binding assay using S1P receptor/CHO membranes preparation
test.settings: [35S]GTPγS, CHO membranes, SPA
To interpret pEC50, take it as minus log10 of a concentration measured in moles per litre.

# compound, study.target, pEC50
measured = [
    ("CCCCCCCCc1ccc(CC[C@](N)(CO)COP(=O)(O)O)c(I)c1", "S1P5 (Homo sapiens, UniProt Q9H228)", 8.82),
    ("NC(CO)(CCc1ccc(OCCCC/C=C/I)cc1)COP(=O)(O)O (racemic)", "S1P5 (Homo sapiens, UniProt Q9H228)", 9.21),
    ("CCCCCCCOc1ccc(CC[C@](N)(CO)COP(=O)(O)O)cc1I", "S1P5 (Homo sapiens, UniProt Q9H228)", 9.15),
    ("C=C(I)CCCCOc1ccc(CCC(N)(CO)COP(=O)(O)O)cc1 (racemic)", "S1P5 (Homo sapiens, UniProt Q9H228)", 8.85),
    ("NC(CO)(CCc1ccc(OCCCC/C=C\\I)cc1)COP(=O)(O)O (racemic)", "S1P5 (Homo sapiens, UniProt Q9H228)", 8.96),
]

Request: Data request, read-out pEC50, for CCCCCCCCc1ccc(CC[C@](N)(CO)COP(=O)(O)O)cc1I
Result: 8.70

###

Each entry below carries its reported pEC50.
study.target: S1P3 (Homo sapiens, UniProt Q99500)
Sequence (Q99500 whole entry): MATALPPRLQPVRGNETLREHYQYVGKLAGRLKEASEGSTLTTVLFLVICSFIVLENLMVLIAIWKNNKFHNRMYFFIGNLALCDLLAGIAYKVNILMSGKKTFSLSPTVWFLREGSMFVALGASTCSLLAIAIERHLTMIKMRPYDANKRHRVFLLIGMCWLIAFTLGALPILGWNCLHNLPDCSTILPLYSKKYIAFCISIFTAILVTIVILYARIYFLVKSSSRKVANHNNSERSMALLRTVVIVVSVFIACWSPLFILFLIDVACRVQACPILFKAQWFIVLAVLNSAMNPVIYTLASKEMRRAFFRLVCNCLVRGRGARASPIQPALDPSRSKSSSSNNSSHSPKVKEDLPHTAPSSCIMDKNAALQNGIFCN
protocol.details: GTPγS binding assay using S1P receptor/CHO membranes preparation
test.settings: [35S]GTPγS, CHO membranes, SPA
pEC50 here: minus log base 10 of the concentration, concentration in moles per litre.

# compound, pEC50
records = [
    ("NC(CO)(CCc1ccc(OCCCC/C=C\\I)cc1)COP(=O)(O)O (racemic) [Example D]", 8.52),
]

Request: I have this compound here, NC(CO)(CCc1ccc(OCCCC/C=C/I)cc1)COP(=O)(O)O (racemic) [Example B] , and I need its recorded pEC50.
Result: 8.92

Request: Entry to check: C=C(I)CCCCOc1ccc(CCC(N)(CO)COP(=O)(O)O)cc1 (racemic) [Example F]
Result: 8.07

Request: // next record CCCCCCCCc1ccc(CC[C@](N)(CO)COP(=O)(O)O)cc1I [Example J]
Result: 7.08

Request: // next record CCCCCCCCc1ccc(CC[C@](N)(CO)COP(=O)(O)O)c(I)c1 [Example K]
Result: 7.34

###

study.target: S1P1 (Homo sapiens)
Sequence (P21453 whole entry): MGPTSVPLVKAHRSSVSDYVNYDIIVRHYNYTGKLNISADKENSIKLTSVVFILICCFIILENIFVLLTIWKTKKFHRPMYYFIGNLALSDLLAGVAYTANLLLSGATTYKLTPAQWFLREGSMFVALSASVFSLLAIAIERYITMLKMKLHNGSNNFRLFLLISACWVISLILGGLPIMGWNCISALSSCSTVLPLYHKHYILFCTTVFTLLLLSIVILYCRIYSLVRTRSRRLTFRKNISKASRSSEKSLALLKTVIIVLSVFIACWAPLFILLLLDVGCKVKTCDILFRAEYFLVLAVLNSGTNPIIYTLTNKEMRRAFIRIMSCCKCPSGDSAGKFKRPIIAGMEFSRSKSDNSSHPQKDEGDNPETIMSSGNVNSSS
protocol.details: GTPγS binding assay using S1P receptor/CHO membranes preparation
test.settings: [35S]GTPγS, CHO membranes, SPA
Parameter EC50: see the listing below.
Report as a plain number; the unit nM is understood.

These solved cases illustrate the format of a correct answer.
# molecule, EC50 [nM]
rows = [
    ("CCCCCCCCc1ccc(CC[C@](N)(CO)COP(=O)(O)O)cc1I", 0.17),
    ("CCCCCCCCc1ccc(CC[C@](N)(CO)COP(=O)(O)O)c(I)c1", 0.24),
    ("NC(CO)(CCc1ccc(OCCCC/C=C\\I)cc1)COP(=O)(O)O (racemic)", 1.3),
    ("C=C(I)CCCCOc1ccc(CCC(N)(CO)COP(=O)(O)O)cc1 (racemic)", 1.6),
    ("NC(CO)(CCc1ccc(OCCCC/C=C/I)cc1)COP(=O)(O)O (racemic)", 0.69),
]

--- query ---
Request: Could you share which EC50 value was measured for CCCCCCCOc1ccc(CC[C@](N)(CO)COP(=O)(O)O)cc1I ?
Result: 0.3

###

System: peripheral blood lymphocytes
protocol.details: Blood Lymphocyte Depletion assay in Lewis rats
Format: in vivo
test.settings: intravenous, 2 hours post treatment
Where a name gives a salt, the structure may show the parent alone.
readout.type: Percent of Lymphocyte Depletion (%)
Give just the numeric value; % need not be written.

Some molecules with known Percent of Lymphocyte Depletion results, for comparison:
# molecule, Percent of Lymphocyte Depletion (%)
rows = [
    ("CCCCCCCCc1ccc(CCC(N)(CO)CO)cc1I", 51),
    ("C=C(I)CCCCOc1ccc(CCC(N)(CO)CO)cc1 [Example E, HCl salt]", 64),
    ("CCCCCCCCc1ccc(CCC(N)(CO)CO)cc1", 71),
]

Shifting focus to the molecule that follows.
Request: Recorded Percent of Lymphocyte Depletion of CCCCCCCCc1ccc(CCC(N)(CO)CO)c(I)c1 , please.
Result: 67
